- TEST_SYSTEM: Bovine spleen trypsin (Sigma) (bovine, UniProt P00760)
- ASSAY_DETAILS: enzyme inhibition with Bz-Arg-pNA, Ki by the Henderson method
# Lookup of reported Ki keyed by entry
VALUE_TYPE: Ki

[[record]]
binder = "Human secretory leukoprotease inhibitor (SLPI) (other) SGKSFKAGVCPPKKSAQCLRYKKPECQSDWQCPGKKRCCPDTCGIKCLDPVDTPNPTRRKPGKCPVTYGQCLMLNPPNFCEMDGQCKRDLKCCMGMCGKSCVSPVKA"
obs_value = "33 nM"

[[record]]
binder = "RKPGKCPVTYGQCLMLNPPNFCEMDGQCKRDLKCCMGMCGKSCVSPVKA (other) [(Arg^59 -Ala^107) SLPI]"
obs_value = "1100 nM"

